The measurements presented in this section are drawn from paper PMC12030314.

Test: PMB concentration in epithelial lining fluid (BAL, urea dilution method)
Type: in vivo
Details: human, epithelial lining fluid, iv, 50 mg, BAL immediately after the seventh dose (day 4); urea dilution method; median and IQR; read-out: ELF concentration
Description: BAL sample collection was possible for 15 of the patients. If the patients’ respiratory status permitted, one BAL was performed immediately after the seventh dose (on day 4 of treatment). […] PMB concentrations in the samples were quantified by monitoring the total concentrations of polymyxin B1 (PB1), polymyxin B2 (PB2), polymyxin B3 (PB3), and isoleucine polymyxin B1 (I-PB1) via a validated ultraperformance liquid chromatography–tandem mass spectrometry (UPLC-MS/MS) assay. […]
Where a SMILES comes first, the peptide text is derived from it. Bridges are numbered along the chain shown (N, C = ends). [ ]: non-standard residue; d: D form. The star is where a group is joined. X1 = CC[C@H](C)CCCCC(=O)*; Dab = NCC[C@H](N)C(=O)O
quantity name: level at 96 h (ng/mL)
The reply should be a number in ng/mL, with the unit left off.

Problem: Can you share its level at 96 h? I mean this compound: CC[C@H](C)CCCCC(=O)N[C@@H](CCN)C(=O)N[C@H](C(=O)N[C@@H](CCN)C(=O)N[C@H]1CCNC(=O)[C@H]([C@@H](C)O)NC(=O)[C@H](CCN)NC(=O)[C@H](CCN)NC(=O)[C@H](CC(C)C)NC(=O)[C@@H](Cc2ccccc2)NC(=O)[C@H](CCN)NC1=O)[C@@H](C)O [PMB, polymyxin B] (X1-[Dab]T[Dab][Dab][Dab][dF]L[Dab][Dab]T; lactam 4-C)
Result: 900
